Tested on: Listeria monocytogenes 10403S
Measurement description: growth inhibition relative to ceftriaxone-alone control; higher = stronger potentiation of ceftriaxone growth inhibition
Experimental context: 10 µM; ceftriaxone 1 ug/ml; 12 h
Value kind: growth inhibition (%)
# number only, unit % dropped from output

1. CC(=O)Nc1cccc(C#Cc2cncnc2Nc2ccc(OCc3cccc(F)c3)c(Cl)c2)n1 | -0.967
2. CCC[C@H](NC(=O)/C(C#N)=C/c1cccc(Br)n1)c1ccccc1 | 99.3
3. CS(=O)(=O)CCNCc1ccc(-c2ccc3ncnc(Nc4ccc(OCc5ccccc5)cc4)c3c2)o1 | -2.04

What value of growth inhibition has been reported for the following compound? `c1ccc(-c2n[nH]cc2-c2ccnc(-c3ccc(OCCN4CCOCC4)cc3)c2)nc1`
-1.77

* * *

In this section, each of the compounds is paired with its reported growth inhibition.
System: Listeria monocytogenes 10403S
Measurement description: growth inhibition relative to ceftriaxone-alone control; higher = stronger potentiation of ceftriaxone growth inhibition
Experimental context: 10 µM; ceftriaxone 1 ug/ml; 12 h
# number only, unit % dropped from output

Please review the following examples before continuing.
1. Cc1cc(O)cc(C)c1/C=C/c1cncc(C(=O)OC(C)(C)C)c1 | -0.285
2. Clc1ccc(CNc2nccc(-c3cnn4ncccc34)n2)cc1 | -1.66

Write down the reported growth inhibition of `Cc1[nH]c(/C=C2\C(=O)Nc3ccc(S(=O)(=O)Cc4c(Cl)cccc4Cl)cc32)c(C)c1C(=O)N1CCC[C@@H]1CN1CCCC1` , test system: Listeria monocytogenes 10403S.
78

Write down the reported growth inhibition of `Cc1ccc2c(c1)/C(=N/Nc1ccc(S(N)(=O)=O)cc1)C(=O)N2` , test system: Listeria monocytogenes 10403S.
2.4

Write down the reported growth inhibition of COc1cc2c(Oc3ccc4[nH]c(C)cc4c3F)ncnc2cc1OCCCN1CCCC1 [Cediranib (AZD2171)] , test system: Listeria monocytogenes 10403S.
46

Write down the reported growth inhibition of `Cc1ccc2c(-c3ccnc(Nc4ccccc4)n3)c(-c3ccc(F)cc3)nn2n1` , test system: Listeria monocytogenes 10403S.
-6.27

Write down the reported growth inhibition of `COc1ccc(Nc2ncc(-c3ccccc3)o2)cc1OC` , test system: Listeria monocytogenes 10403S.
10.7

Write down the reported growth inhibition of `N#Cc1cccc(Nc2ncc(-c3ccccc3)o2)c1` , test system: Listeria monocytogenes 10403S.
-4.01

Write down the reported growth inhibition of `COc1cc(Nc2ncc(-c3ccccc3)o2)cc(OC)c1` , test system: Listeria monocytogenes 10403S.
17

Write down the reported growth inhibition of `CNC(=O)c1cc(-c2ccc(F)cc2)cc(-c2ccc(S(=O)(=O)N3CCCC3)cc2)c1N` , test system: Listeria monocytogenes 10403S.
-4.95

* * *

Tested on: Listeria monocytogenes 10403S
Measurement description: growth inhibition relative to ceftriaxone-alone control; higher = stronger potentiation of ceftriaxone growth inhibition
Experimental context: 10 µM; ceftriaxone 1 ug/ml; 12 h
Value kind: growth inhibition

1. C[C@@H]1CN(CC(=O)Nc2ccc3c(c2)Cc2cccc(-c4cc(=O)cc(N5CCOCC5)o4)c2S3)C[C@H](C)O1 | 27.5%
2. CCCN(CCS(C)(=O)=O)Cc1ccc(-c2ccc3ncnc(Nc4ccc(OCc5cccc(F)c5)c(Cl)c4)c3c2)o1 | -7.09%
3. Cn1c(=O)c(F)c(Nc2ccc(I)cc2F)c2c(=O)n(C[C@@H](O)CO)cnc21 | 23%
4. COc1cc(Nc2nccc(-c3cnn4ncccc34)n2)cc(OC)c1 | -13.8%
5. Cn1cnc2c(F)c(Nc3ccc(Br)cc3Cl)c(C(=O)NOCCO)cc21 [AZD6244 (Selumetinib)] | 0.682%

Write down the reported growth inhibition of COc1ccc2cc(-c3c(-c4ccncc4)nc(-c4ccc([S+](C)[O-])cc4)n3C)ccc2c1 (stereo not given) , test system: Listeria monocytogenes 10403S.
12%

Write down the reported growth inhibition of `COc1ccc(COc2ccc(Cc3cnc(N)nc3N)cc2OC)cc1` , test system: Listeria monocytogenes 10403S.
63.8%

Write down the reported growth inhibition of `ON=C1CCc2cc(-c3nc(C4CCNCC4)[nH]c3-c3ccncc3)ccc21` , test system: Listeria monocytogenes 10403S.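 Also: End-point A600 read in BHI broth at 37 °C with 2% DMSO, inhibition computed as (1 − OD with compound plus ceftriaxone ÷ OD with ceftriaxone only) × 100.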
7.4%
